- System: TTR
- method: TTR editing in primary human hepatocytes transfected with Spy Cas9 mRNA and dgRNAs (Table 9)
- Type: cell-based
- condition context: dgRNA co-transfected with Spy Cas9 mRNA (SEQ ID NO:2)
Each entry gets rule not met if its Avg % Edit stays under 20%, and rule met if its Avg % Edit is 20% or above.

polymer sequence | classification
CAUUGAUGGCAGGACUGCCU (tested as dual guide RNA, chemistry not given here) [CR003347] | rule met
AGUGAGUCUGGAGAGCUGCA (tested as dual guide RNA, chemistry not given here) [CR003359] | rule met
GGGGCUCAGCAGGGCGGCAA (tested as dual guide RNA, chemistry not given here) [CR003381] | rule not met
GAAAGGCUGCUGAUGACACC (tested as dual guide RNA, chemistry not given here) [CR003352] | rule not met
GCAACUUACCCAGAGGCAAA (tested as dual guide RNA, chemistry not given here) [CR003356] | rule not met
AAGUGCCUUCCAGUAAGAUU (tested as dual guide RNA, chemistry not given here) [CR003368] | rule not met
CCAGUCCAGCAAGGCAGAGG (tested as dual guide RNA, chemistry not given here) [CR003337] | rule not met
UUCUUUGGCAACUUACCCAG (tested as dual guide RNA, chemistry not given here) [CR003357] | rule met
GUGAGUCUGGAGAGCUGCAU (tested as dual guide RNA, chemistry not given here) [CR003360] | rule not met
UCUAGAACUUUGACCAUCAG (tested as dual guide RNA, chemistry not given here) [CR003345] | rule met
GCGGCGGGGGCCGGAGUCGU (tested as dual guide RNA, chemistry not given here) [CR003374] | rule not met
ACGUGUCUUCUCUACACCCA (tested as dual guide RNA, chemistry not given here) [CR005302] | rule met
GUCACAGAAACACUCACCGU (tested as dual guide RNA, chemistry not given here) [CR005301] | rule not met
